system: T1, Human IL-33-his (human, UniProt O95760 112-270, biotinylated with EZ-Link NHS-Biotin where used as IL-33-his-biotin)
T1 sequence: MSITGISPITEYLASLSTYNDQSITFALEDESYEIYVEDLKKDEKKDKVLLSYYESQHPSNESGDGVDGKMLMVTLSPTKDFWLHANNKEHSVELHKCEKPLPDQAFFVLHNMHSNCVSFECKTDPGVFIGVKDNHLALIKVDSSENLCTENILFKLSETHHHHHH
assay.overview: cell-based or functional assay
property.measured: IC50 of inhibition of IFNγ secretion by NK cells induced by IL-33 (pM)
Just the number please, in pM, no unit attached.

Reported IC50 of inhibition of IFNγ secretion by NK cells induced by IL-33, binder 871G1-Hu1 (antibody, human IgG4 S228P, kappa, V domains shown, Humanized; also called humanized antibody 871G1-Hu1) VH: QVQLQESGPGLVKPSETLSLTCTVSGFSLSKYGVHWIRQPPGKGLEWIGVLRAGGTISYNSALMSRVTISEDISKSQVSLKLSSVTAADTAVYYCARDHYYYSSFGGFASWGQGTLVTVSS VL: DIQMTQSPSSVSASVGDRVTITCLASQTIGAWLAWYQQKPGKSPKLLIYAATRLADGVPSRFSGSGSGTDFTLTISSLQPEDFATYYCQQLNSTPYTFGQGTKVEIKR : ____ 851
